Assay: AUC in CD-1 mouse at 200 mg/kg, po administered as suspension by LC-MS/MS analysis
Assay type: ADME, organism-based
Conditions: in vivo
quantity-name: AUC (µM·h)
Answers are plain numbers, in µM·h.

// AUC value for `O=C1N[C@](c2ccc(N3CCOCC3)cc2)(c2ccsc2)CC(O)=C1Sc1ccccc1Cl` : 403

###

Assay: AUC in CD-1 mouse at 5 mg/kg, po administered as suspension by LC-MS/MS analysis
Format: ADME, organism-based
Conditions: in vivo
quantity-name: AUC

// AUC value for `O=C1N[C@](c2ccc(N3CCOCC3)cc2)(c2ccsc2)CC(O)=C1Sc1ccccc1Cl` : 5.1 µM·h

###

Test: Lipophilicity, log D of the compound at pH 7.4 by high throughput method
Type: physicochemical
Conditions: buffer
Would you please tag the item 1 when its logD is 1 or above, and -1 when it is below?

Before answering, review these 3 worked examples.
Asked: hey, is logD for this one >= 1? O=C1NC(c2ccc(C3CCCCC3)cc2)(c2ccsc2)CC(O)=C1Sc1ccccc1Cl (racemic)
Given back: 1

Asked: hey, is logD for this one >= 1? O=C1NC(c2ccsc2)(c2cccc(Nc3ccc(F)cc3)c2)CC(O)=C1Sc1ccccc1Cl (racemic)
Given back: 1

Asked: hey, is logD for this one >= 1? O=C1NC(c2ccc(N3CCOCC3=O)cc2)(c2ccsc2)CC(O)=C1Sc1ccccc1Cl (stereo not drawn)
Given back: -1

Others:
Asked: hey, is logD for this one >= 1? CC1CN(c2ccc(C3(c4ccsc4)CC(O)=C(Sc4ccccc4Cl)C(=O)N3)cc2)CC(C)O1 (stereo not drawn)
Given back: 1

Asked: hey, is logD for this one >= 1? `O=C1NC(c2ccccc2)(c2ccccc2)CC(O)=C1Sc1ccccc1Cl`
Given back: 1

Asked: hey, is logD for this one >= 1? O=C1NC(c2ccc(N3CCCCC3)cc2)(c2ccsc2)CC(O)=C1Sc1ccccc1Cl (racemic)
Given back: 1

Asked: hey, is logD for this one >= 1? O=C1NC(c2ccc(N3CCC4(CC3)COC4)cc2)(c2ccsc2)CC(O)=C1Sc1ccccc1Cl (stereo not drawn)
Given back: -1

Asked: hey, is logD for this one >= 1? O=C1NC(c2ccsc2)(c2cccc(NC3CCOCC3)c2)CC(O)=C1Sc1ccccc1Cl (racemic)
Given back: -1

Asked: hey, is logD for this one >= 1? O=C1NC(c2ccccc2)(c2ccsc2)CC(O)=C1Sc1ccccc1Cl (stereo not drawn)
Given back: -1

###

Assay: Cmax in CD-1 mouse at 1 mg/kg, iv administered as bolus by LC-MS/MS analysis
Assay type: ADME, organism-based
Set-up: dose 1 mg/kg, route intravenous
Conditions: in vivo
quantity-name: Cmax (nM)
Give bare numbers, in nM.

// Cmax value for `O=C1N[C@](c2ccc(N3CCOCC3)cc2)(c2ccsc2)CC(O)=C1Sc1ccccc1Cl` : 2500

###

Experiment: AUC in CD-1 mouse at 50 mg/kg, po administered as suspension by LC-MS/MS analysis
Assay type: ADME, organism-based
Conditions: in vivo
quantity-name: AUC (µM·h)
Give bare numbers, in µM·h.

// AUC value for `O=C1N[C@](c2ccc(N3CCOCC3)cc2)(c2ccsc2)CC(O)=C1Sc1ccccc1Cl` : 125

###

Assay: AUC in CD-1 mouse at 1 mg/kg, iv administered as bolus by LC-MS/MS analysis
Type: ADME, organism-based
Settings: in vivo
quantity-name: AUC
The reply should read as a number followed by its unit.

// AUC value for `O=C1N[C@](c2ccc(N3CCOCC3)cc2)(c2ccsc2)CC(O)=C1Sc1ccccc1Cl` : 1.5 µM·h

Each recorded value in this set is attributed to ChEMBL document CHEMBL4428136.
